# test_description: Binding affinity to CM5 sensor chip immobilized human full-length wild type FGFR1c assessed as dissociation constant by SPR analysis
recorded_endpoint: Kd (nM)

- H-YRSRKYSSWYVALKRLPET-NH2: 1600

---

# test_description: AUC in immunized Sprague-Dawley rat at 1.5 mg/kg,SC administration measured upto 24 hrs by fluorescence based microplate reader assay
# Assay type: ADME, organism-based
# test_settings: in vivo
recorded_endpoint: AUC at 24 h

- H-YRSRKYSSWYVALKRLPET-NH2: 711 ng·h/mL

---

# test_description: Tmax in immunized Sprague-Dawley rat at 1.5 mg/kg,SC administration measured upto 24 hrs by fluorescence based microplate reader assay
# Type: ADME, organism-based
# test_settings: in vivo
recorded_endpoint: Tmax

• H-YRSRKYSSWYVALKRLPET-NH2 = 34.8 min
